Origin of values: patent US20040018971A1

assaySystem: T1, HLA-A*6801 (purified HLA class I molecule) (human)
T1 construct: Purified MHC molecule
procedureSummary: competition vs 125I standard peptide, purified HLA
For each entry below, report its relative binding ratio value.

Here are 6 binders together with their reported answers.
Give the measured relative binding ratio of ILKETELRK [HER2/neu peptide, position 714, 9 amino acids] .
0.0001 ratio (IC50 standard/IC50 test)

Next up: ILWKDIFHK (also called Her2/neu.167) [HER2/neu peptide, position 167, 9 amino acids]
0.0046 ratio (IC50 standard/IC50 test)

Next up: KVLRENTSPK [HER2/neu peptide, position 753, 10 amino acids]
0.0008 ratio (IC50 standard/IC50 test)

Next up: LLNWCMQIAK [HER2/neu peptide, position 822, 10 amino acids]
0.0086 ratio (IC50 standard/IC50 test)

Next up: GVVFGILIK [HER2/neu peptide, position 668, 9 amino acids]
0.0011 ratio (IC50 standard/IC50 test)

Next up: ILIKRRQQK [HER2/neu peptide, position 673, 9 amino acids]
0.0001 ratio (IC50 standard/IC50 test)

***
Give the measured relative binding ratio of HTVPWDQLFR (also called Her2/neu.478) [HER2/neu peptide, position 478, 10 amino acids] .
2 ratio (IC50 standard/IC50 test)
